Molecular target: Torsin-1A-interacting protein 1 (Homo sapiens) (UniProt Q5JTV8)
Sequence (Q5JTV8 whole entry, looked up): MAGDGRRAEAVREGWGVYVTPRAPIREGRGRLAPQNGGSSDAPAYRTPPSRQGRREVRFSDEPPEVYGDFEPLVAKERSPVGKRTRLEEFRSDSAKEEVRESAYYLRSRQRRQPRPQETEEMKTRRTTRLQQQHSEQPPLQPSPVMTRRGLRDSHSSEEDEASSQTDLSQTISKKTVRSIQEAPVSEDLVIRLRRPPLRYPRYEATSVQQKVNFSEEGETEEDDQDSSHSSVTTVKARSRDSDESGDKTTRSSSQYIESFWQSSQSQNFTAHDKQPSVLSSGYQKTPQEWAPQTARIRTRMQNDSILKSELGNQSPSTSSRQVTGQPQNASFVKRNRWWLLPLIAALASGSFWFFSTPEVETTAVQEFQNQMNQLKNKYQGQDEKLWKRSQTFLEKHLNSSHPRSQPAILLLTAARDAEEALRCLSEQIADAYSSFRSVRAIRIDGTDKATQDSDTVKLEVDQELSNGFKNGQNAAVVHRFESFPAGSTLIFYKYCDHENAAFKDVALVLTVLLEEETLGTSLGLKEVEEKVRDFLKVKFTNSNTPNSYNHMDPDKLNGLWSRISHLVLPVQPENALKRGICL
Assay: LAP1 binders from COS7 cell lysate, primary screen, small-molecule microarray, 635/667 nm fluorescence (AID 1116)
Conditions: COS7-hLAP1 lysate binding, 635 nm fluorescence, higher = more signal

{"compound": "CCCNC(=O)OC[C@H]1O[C@H](CCON=CC[C@@H]2C=C[C@H](OC(C)=O)[C@@H](COC(C)=O)O2)C=C[C@@H]1Oc1ccc(OC)cc1", "study-system": "Torsin-1A-interacting protein 1 (Homo sapiens) (UniProt Q5JTV8)", "composite z-score": 0.444}
{"compound": "CC(C)NC(=O)[C@@]1(c2ccc([N+](=O)[O-])cc2)CC(=O)N(CC23CC4CC(CC(C4)C2)C3)[C@@H]1c1ccc(CO)cc1I", "study-system": "Torsin-1A-interacting protein 1 (Homo sapiens) (UniProt Q5JTV8)", "composite z-score": 0.981}
{"compound": "C[C@H](c1ccccc1)N1C(=O)[C@H]2[C@@H]3C(=CC[C@H]2C1=O)C(=O)[C@H]1O[C@H]1[C@H]3O", "study-system": "Torsin-1A-interacting protein 1 (Homo sapiens) (UniProt Q5JTV8)", "composite z-score": 0.326}
{"compound": "C=CCN1C(=O)[C@]2(O[C@H](CCn3cc(CCO)nn3)[C@@H]([Si](C)(C)c3ccc(OC)cc3)[C@@H]2C)c2cc(N3CCOC3=O)ccc21", "study-system": "Torsin-1A-interacting protein 1 (Homo sapiens) (UniProt Q5JTV8)", "composite z-score": 1.52}
{"compound": "COC(=O)[C@@]1(Cc2ccc(F)cc2)[C@H]2c3cc(C(=O)N(C)C)n(Cc4ccc(OC)c(OC)c4)c3C[C@H]2CN1C(=O)c1ccccc1", "study-system": "Torsin-1A-interacting protein 1 (Homo sapiens) (UniProt Q5JTV8)", "composite z-score": 0.0894}
{"compound": "COCCOC(=O)N1C(=O)[C@@]2(c3cc(C#Cc4ccc(OC)cc4)ccc31)[C@H](C(=O)N1CCN(c3ncccn3)CC1)[C@H]1C(=O)O[C@H](c3ccccc3)[C@H](c3ccccc3)N1[C@@H]2c1ccc(OCCO)cc1", "study-system": "Torsin-1A-interacting protein 1 (Homo sapiens) (UniProt Q5JTV8)", "composite z-score": -0.109}
{"compound": "CC(C)[C@H](NC(=O)OC(C)(C)C)[C@@H](O)CC(=O)OC(C)(C)C", "study-system": "Torsin-1A-interacting protein 1 (Homo sapiens) (UniProt Q5JTV8)", "composite z-score": -0.68}
{"compound": "COc1ccc([Si](C)(C)[C@H]2[C@H](CC(=O)N3CCC[C@H]3CO)O[C@@]3(C(=O)N(Cc4cccc(N5C(=O)COc6ccccc65)c4)c4ccccc43)[C@@H]2C)cc1", "study-system": "Torsin-1A-interacting protein 1 (Homo sapiens) (UniProt Q5JTV8)", "composite z-score": 1.16}
{"compound": "Cc1ccc(S(=O)(=O)N[C@@H]2COC(=O)[C@H](C)COC(=O)CC=C[C@H]2C)cc1", "study-system": "Torsin-1A-interacting protein 1 (Homo sapiens) (UniProt Q5JTV8)", "composite z-score": 0.438}
{"compound": "CCOC(=O)C1=CCC(c2cc3ccccc3[nH]2)NC1 (centres undefined)", "study-system": "Torsin-1A-interacting protein 1 (Homo sapiens) (UniProt Q5JTV8)", "composite z-score": 0.97}
{"compound": "CN1C(=O)C2C=CC(C(O)C(c3ccccc3)c3ccccc3)N(NC(=O)OC(C)(C)C)C2C1=O (centres undefined)", "study-system": "Torsin-1A-interacting protein 1 (Homo sapiens) (UniProt Q5JTV8)", "composite z-score": 2.59}
{"compound": "C[C@@H]1CC[C@H]2C(=O)O[C@H](COc3ccc(C(C)(C)C)cc3)CN2[C@H]1c1ccc(Br)cc1", "study-system": "Torsin-1A-interacting protein 1 (Homo sapiens) (UniProt Q5JTV8)", "composite z-score": -0.15}
{"compound": "C=CC[C@@H]1C=C[C@H](ON=C2c3cc(OC)ccc3O[C@H](c3cccc(OC)c3)[C@H]2O)[C@@H](CO)O1", "study-system": "Torsin-1A-interacting protein 1 (Homo sapiens) (UniProt Q5JTV8)", "composite z-score": -0.103}
{"compound": "O=C1C[C@]2(c3ccc([N+](=O)[O-])cc3)C(=O)N(CCN3CCOCC3)c3cc(CO)ccc3[C@H]2N1CC12CC3CC(CC(C3)C1)C2", "study-system": "Torsin-1A-interacting protein 1 (Homo sapiens) (UniProt Q5JTV8)", "composite z-score": 0.15}
{"compound": "CCc1cccc(NC(=O)O[C@H]2[C@H](OC(=O)Nc3ccc4c(c3)OCO4)[C@@H](OC(=O)Nc3ccc4c(c3)OCO4)[C@@H](OC)O[C@@H]2CO)c1", "study-system": "Torsin-1A-interacting protein 1 (Homo sapiens) (UniProt Q5JTV8)", "composite z-score": 0.577}
{"compound": "COC(=O)[C@@H]1CC[C@H](C)[C@@H](c2ccc(C)cc2)N1C(=O)c1ccc(C=NOC[C@@H](O)COCc2ccco2)cc1", "study-system": "Torsin-1A-interacting protein 1 (Homo sapiens) (UniProt Q5JTV8)", "composite z-score": -1.63}
{"compound": "CC(C)CON=C1C[C@@H](O)[C@@H](O)[C@@H]2[C@@H]3C(=O)N(C[C@@H]4CCCO4)C(=O)[C@@H]3CC[C@H]12", "study-system": "Torsin-1A-interacting protein 1 (Homo sapiens) (UniProt Q5JTV8)", "composite z-score": 0.241}
{"compound": "CCN(CC)c1ccc(N2CC=CC34O[C@@H]5/C=C\\CCC(C)OC(=O)C5[C@H]3C(=O)N(CCCO)[C@@H]4C2=O)cc1 (some centres undefined)", "study-system": "Torsin-1A-interacting protein 1 (Homo sapiens) (UniProt Q5JTV8)", "composite z-score": 0.581}
{"compound": "CC(C)C[C@@H]1NC(=O)[C@H]2C[C@@H](C(=O)NCCCCCCN(C)C)[C@@H](c3cccc(OCCO)c3)N2C1=O", "study-system": "Torsin-1A-interacting protein 1 (Homo sapiens) (UniProt Q5JTV8)", "composite z-score": 2.04}
{"compound": "CC=CC1=C(CO)[C@H](O)[C@H]2O[C@H]2[C@H]1O", "study-system": "Torsin-1A-interacting protein 1 (Homo sapiens) (UniProt Q5JTV8)", "composite z-score": -0.134}
{"compound": "COc1ccc(O[C@H]2C=C[C@@H](c3ccccc3)O[C@@H]2CON=C[C@@H](C)[C@H](OCc2ccccc2)C(C)C)cc1", "study-system": "Torsin-1A-interacting protein 1 (Homo sapiens) (UniProt Q5JTV8)", "composite z-score": -1.24}
{"compound": "COC(=O)[C@H](C)NC(=O)[C@@H](C)CO", "study-system": "Torsin-1A-interacting protein 1 (Homo sapiens) (UniProt Q5JTV8)", "composite z-score": 0.924}
{"compound": "CCCNC(=O)[C@@H]1c2ccccc2C(=O)N(c2ccc(C)cn2)[C@H]1c1ccc(CO)cc1", "study-system": "Torsin-1A-interacting protein 1 (Homo sapiens) (UniProt Q5JTV8)", "composite z-score": 0.185}
{"compound": "C=CCNC(=O)[C@H]1[C@@H]2C(=O)O[C@@H](c3ccccc3)[C@@H](c3ccccc3)N2[C@@H](c2ccc(O)cc2)[C@]12C(=O)N(C(=O)OCCOC)c1ccc(C#CC3=CCCCC3)cc12", "study-system": "Torsin-1A-interacting protein 1 (Homo sapiens) (UniProt Q5JTV8)", "composite z-score": 2.09}
{"compound": "Cc1ccc(F)cc1S(=O)(=O)N[C@@H]1CCN(Cc2ccc(CC(C)C)cc2)C1", "study-system": "Torsin-1A-interacting protein 1 (Homo sapiens) (UniProt Q5JTV8)", "composite z-score": 0.464}
{"compound": "CC(=O)OC[C@H]1O[C@H](CCON=C(C)CCC(=O)OC[C@H]2O[C@H](C#Cc3ccccc3)C=C[C@@H]2Oc2ccc(C)cc2)C=C[C@@H]1OC(C)=O", "study-system": "Torsin-1A-interacting protein 1 (Homo sapiens) (UniProt Q5JTV8)", "composite z-score": 0.245}
{"compound": "CC(C)NC(=O)[C@@H]1c2ccccc2C(=O)N(CC23CC4CC(CC(C4)C2)C3)[C@H]1c1ccc(CO)cc1", "study-system": "Torsin-1A-interacting protein 1 (Homo sapiens) (UniProt Q5JTV8)", "composite z-score": 0.774}
{"compound": "CC(C)(C)N1C(=O)[C@H]2[C@H]3[C@H](O)[C@H](O)CC(=NOCc4ccccc4)[C@@H]3CC[C@H]2C1=O", "study-system": "Torsin-1A-interacting protein 1 (Homo sapiens) (UniProt Q5JTV8)", "composite z-score": 0.593}
{"compound": "CO[C@H]1O[C@H](CO)[C@@H](OC(=O)Nc2ccc(C#N)cc2)[C@H](OC(=O)c2cc3ccccc3[nH]2)[C@H]1OC(=O)c1cc2ccccc2[nH]1", "study-system": "Torsin-1A-interacting protein 1 (Homo sapiens) (UniProt Q5JTV8)", "composite z-score": 2.09}
